All values here come from paper PMC9007350.

Target: TAZ-TEAD complex (human TAZ (23-57) probe, human TEAD4 (217-434)) (Homo sapiens, UniProt Q15561)
Construct: made in house
Assay: TAZ-TEAD fluorescence polarization assay
Type: binding
Conditions: acylated TEAD; TEAD4 350 nM, probe 25 nM; read-out: IC50, TAZ-TEAD FP assay, acylated TEAD
Procedure: Human YAP (61–100), human TAZ (23–57) and mouse Vgll1 (26–51) peptide probes were used; all the probes had carboxyfluorescein labels. Human TEAD4 (217–434) was used in the assay at a concentration of 350 nM and the peptide probe concentration was 25 nM. Disruptors were titrated at concentrations ranging from 0–150 μM to the probe-TEAD complex, and the mixtures were incubated at 25°C for 20 min. Then, polarization measurements were taken using a Victor3 (PerkinElmer) plate reader.
REPORTED_PROPERTY: IC50
# include the unit after the value

## Input Quick one: IC50 of O=C(O)C1=CC(=C(c2ccc(O)c(C(=O)O)c2)c2ccc(O)c(C(=O)O)c2)C=CC1=O ?
## Output 68 µM

====

Target: TAZ-TEAD complex (full-length His-TAZ and FLAG-TEAD4) (Homo sapiens)
Construct: human TEAD4 (1–434) (UniProt—Q15561); strep (N, cleaved yes)
Sequence (Q15561 whole entry, one chain of several): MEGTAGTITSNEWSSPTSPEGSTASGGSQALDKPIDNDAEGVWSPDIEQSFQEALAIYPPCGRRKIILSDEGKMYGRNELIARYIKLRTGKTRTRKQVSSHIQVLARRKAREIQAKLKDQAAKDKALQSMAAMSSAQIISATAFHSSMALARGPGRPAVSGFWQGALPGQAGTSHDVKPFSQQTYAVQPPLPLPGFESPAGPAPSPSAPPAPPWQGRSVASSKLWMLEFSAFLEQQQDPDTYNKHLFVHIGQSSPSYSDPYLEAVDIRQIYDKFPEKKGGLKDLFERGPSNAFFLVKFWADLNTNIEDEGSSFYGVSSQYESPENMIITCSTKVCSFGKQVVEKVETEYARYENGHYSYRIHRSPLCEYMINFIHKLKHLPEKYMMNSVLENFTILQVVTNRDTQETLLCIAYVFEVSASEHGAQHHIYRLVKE
Experiment: TAZ-TEAD AlphaLISA assay
Conditions: 10 nM TAZ, 15 nM TEAD4
REPORTED_PROPERTY: IC50 (nM)
Number in nM, nothing else.

## Input Quick check: IC50 on TAZ-TEAD complex (full-length His-TAZ and FLAG-TEAD4) (Homo sapiens), item O=C(O)C1=CC(=C(c2ccc(O)c(C(=O)O)c2)c2ccc(O)c(C(=O)O)c2)C=CC1=O ?
## Output 35

====

Target: YAP-TEAD complex (human YAP (61-100) probe, human TEAD4 (217-434)) (Homo sapiens, UniProt Q15561)
Sequence (Q15561 217-434, one chain of several): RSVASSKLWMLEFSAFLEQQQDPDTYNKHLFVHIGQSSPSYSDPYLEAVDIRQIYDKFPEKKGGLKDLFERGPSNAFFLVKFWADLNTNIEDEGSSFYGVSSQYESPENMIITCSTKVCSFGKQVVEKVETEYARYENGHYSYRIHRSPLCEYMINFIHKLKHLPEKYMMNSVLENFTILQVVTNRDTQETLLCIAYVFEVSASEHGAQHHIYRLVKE
Test: YAP-TEAD fluorescence polarization assay
Conditions: TEAD4 350 nM, YAP probe 25 nM; read-out: IC50, YAP-TEAD FP assay
REPORTED_PROPERTY: IC50 (µM)
Give just the number in µM; leave the unit off.

## Input Entry under review: O=C(O)C1=CC(=C(c2ccc(O)c(C(=O)O)c2)c2ccc(O)c(C(=O)O)c2)C=CC1=O . Reported IC50?
## Output 160

====

Target: YAP/TAZ-binding domain of human TEAD4 (217-434), deacylated (Homo sapiens)
Test: Surface plasmon resonance
Conditions: one-site binding fit of steady-state response versus concentration; read-out: Kd, affinity between TEAD and ATA
REPORTED_PROPERTY: pKd
As a rule, pKd stands for the negative log10 of the concentration, concentration in M.

## Input Please state recorded pKd (tested on YAP/TAZ-binding domain of human TEAD4 (217-434), deacylated (Homo sapiens)) of O=C(O)C1=CC(=C(c2ccc(O)c(C(=O)O)c2)c2ccc(O)c(C(=O)O)c2)C=CC1=O
## Output 5.52

====

Target: TAZ-TEAD complex (human TAZ (23-57) probe, human TEAD4 (217-434)) (Homo sapiens, UniProt Q15561)
Construct: made in house
Assay: TAZ-TEAD fluorescence polarization assay
Format: binding
Conditions: deacylated TEAD; TEAD4 350 nM, probe 25 nM; read-out: IC50, TAZ-TEAD FP assay, deacylated TEAD
REPORTED_PROPERTY: IC50 (µM)
Field: numeric (µM). Do not append units.

## Input Reported IC50, compound O=C(O)C1=CC(=C(c2ccc(O)c(C(=O)O)c2)c2ccc(O)c(C(=O)O)c2)C=CC1=O [ATA, aurintricarboxylic acid] : ____
## Output 72
